- System: Streptococcus pneumoniae
- protocolNotes: In vitro antibacterial activity of 5649 strain of Gram positive bacteria Streptococcus pneumoniae
- Format: functional
measureName: MIC (µg/mL)
# output: bare number, implied unit µg/mL

I looked up CC[C@H]1OC(=O)/C(C)=C/[C@H](C)[C@@H](O[C@@H]2O[C@H](C)C[C@H](N(C)C)[C@H]2O)[C@@](C)(OC)C[C@@H](C)C(=O)[C@H](C)[C@H]2N(NCc3ccc(O)cc3)C(=O)O[C@]12C and its MIC for Streptococcus pneumoniae was 1

Tested on Streptococcus pneumoniae: CC[C@H]1OC(=O)/C(C)=C/[C@H](C)[C@@H](O[C@@H]2O[C@H](C)C[C@H](N(C)C)[C@H]2O)[C@@](C)(OC)C[C@@H](C)C(=O)[C@H](C)[C@H]2N(NCCCn3nnc4ccccc43)C(=O)O[C@]12C . Observed MIC: 1

Log: Streptococcus pneumoniae, compound CC[C@H]1OC(=O)/C(C)=C/[C@H](C)[C@@H](O[C@@H]2O[C@H](C)C[C@H](N(C)C)[C@H]2O)[C@@](C)(OC)C[C@@H](C)C(=O)[C@H](C)[C@H]2N(NCCCc3cccc([N+](=O)[O-])c3)C(=O)O[C@]12C , MIC = 0.25
